- TGT: human CTPS1 (Homo sapiens)
- Construct: purchased Proteros biostructures GmbH
- Sequence (P17812 1-591): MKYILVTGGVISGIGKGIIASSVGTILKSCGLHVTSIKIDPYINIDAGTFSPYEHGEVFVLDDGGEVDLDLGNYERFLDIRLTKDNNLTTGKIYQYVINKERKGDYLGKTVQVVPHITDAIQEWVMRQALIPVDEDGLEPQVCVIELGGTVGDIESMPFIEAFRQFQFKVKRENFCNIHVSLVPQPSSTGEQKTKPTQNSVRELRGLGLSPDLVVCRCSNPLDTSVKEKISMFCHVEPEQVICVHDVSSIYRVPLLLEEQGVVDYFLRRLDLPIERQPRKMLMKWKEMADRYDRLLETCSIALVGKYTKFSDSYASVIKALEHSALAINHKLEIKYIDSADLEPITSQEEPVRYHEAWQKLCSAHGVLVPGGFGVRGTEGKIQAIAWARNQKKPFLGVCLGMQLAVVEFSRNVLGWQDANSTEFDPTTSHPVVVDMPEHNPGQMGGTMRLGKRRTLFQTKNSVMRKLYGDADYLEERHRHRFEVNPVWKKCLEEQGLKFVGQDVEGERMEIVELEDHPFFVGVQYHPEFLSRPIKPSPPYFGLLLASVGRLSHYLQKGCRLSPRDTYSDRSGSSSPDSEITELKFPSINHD
- TEST_DETAILS: Human CTPS1 enzyme inhibition (ADP-Glo Max assay)
- Format: biochemical
- CONDITION_NOTES: Table 23; ADP-Glo Max assay; read-out: CTPS1 (Human CTPS1 Enzyme Inhibition data grouped by potency range, IC50)
IC50 overview

CCOc1cncc(-c2ccc(NC(=O)C(CC)(CC)c3ccnc(NS(=O)(=O)C4CC4)n3)cc2)n1 [Example P10] :: ≤ 100 nM

Data request: Identify the reported IC50 for the following entry. CCOc1cncc(-c2ccc(NC(=O)C(C)(C)c3ccnc(NS(C)(=O)=O)n3)cc2)n1 [Example P81]
Data returned: ≤ 100 nM

Data request: Identify the reported IC50 for the following entry. CCOc1cncc(-c2ccc(NC(=O)C(c3ccnc(NS(=O)(=O)C4CC4)n3)C(C)C)nc2)n1 (stereo not shown) [Example P154]
Data returned: ≤ 100 nM

Data request: Identify the reported IC50 for the following entry. CCOc1cncc(-c2ccc(NC(=O)C(C)(C)c3ccnc(NS(=O)(=O)C4CCC4)n3)cc2)n1 [Example P26]
Data returned: 100 to 1000 nM

Data request: Identify the reported IC50 for the following entry. CC(C)Oc1cncc(-c2ccc(NC(=O)C(C)(C)c3ccnc(NS(C)(=O)=O)n3)c(F)c2)n1 [Example P78]
Data returned: 100 to 1000 nM

Data request: Identify the reported IC50 for the following entry. CC(C)(C(=O)Nc1ccc(-c2cccc(C#N)c2)cc1)c1ccnc(NS(=O)(=O)C2CC2)n1 [Example P62]
Data returned: 1000 to 10000 nM

Data request: Identify the reported IC50 for the following entry. CCOc1cncc(-c2ccc(NC(=O)C(C)(CCOC)c3ccnc(NS(C)(=O)=O)n3)nc2)n1 (stereo not shown) [Example P147]
Data returned: 100 to 1000 nM

* * *

- TGT: human CTPS1 (Homo sapiens, UniProt P17812)
- Construct: purchased Proteros biostructures GmbH
- TEST_DETAILS: Human CTPS1 enzyme inhibition (ADP-Glo Max assay)
- Type: biochemical
- CONDITION_NOTES: Table 23; ADP-Glo Max assay; read-out: CTPS1 (Human CTPS1 Enzyme Inhibition data grouped by potency range, IC50)
pIC50: −log10 of the molar value.
pIC50 overview

Worked cases, answers included:
CC(C)(C(=O)Nc1ccc(-c2cncc(OC3CC3)n2)cc1)c1ccnc(NS(=O)(=O)C2CC2)n1 :: 6.00 to 7.00
CCOc1cccc(-c2ccc(NC(=O)C(C)(C)c3ccnc(NS(=O)(=O)C4CC4)n3)cc2)c1 :: 4.70 to 5.00

Data request: Identify the reported pIC50 for the following entry. `CC(C)(C(=O)Nc1ccc(-c2cncc(C(F)(F)F)n2)cc1)c1ccnc(NS(=O)(=O)C2CC2)n1`
Data returned: ≥ 7.00

Data request: Identify the reported pIC50 for the following entry. `O=C(Cc1ccnc(NS(=O)(=O)C2CC2)n1)Nc1ccc(-c2cncc(C(F)(F)F)n2)cc1`
Data returned: ≥ 7.00

* * *

pIC50 overview
- TGT: human CTPS1 (Homo sapiens, UniProt P17812)
- Construct: purchased Proteros biostructures GmbH
- TEST_DETAILS: Human CTPS1 enzyme inhibition (ADP-Glo Max assay)
- Format: biochemical
- CONDITION_NOTES: Table 23; ADP-Glo Max assay; read-out: CTPS1 (Human CTPS1 Enzyme Inhibition data grouped by potency range, IC50)
pIC50: −log10 of the molar value.

Worked cases, answers included:
CCOc1cncc(-c2ccc(NC(=O)C(C)(C)c3ccnc(NS(=O)(=O)C4CC4)n3)nc2)n1 :: ≥ 7.00
CCOc1cncc(-c2ccc(NC(=O)C(C)(C)c3ccnc(NS(=O)(=O)C4(C)CC4)n3)cc2)n1 :: 6.00 to 7.00
CC(C)(C(=O)Nc1ccc(-c2cnccn2)cc1)c1cccc(NS(=O)(=O)C2CC2)n1 :: 5.00 to 6.00

Let's switch to this molecule now.
Data request: Identify the reported pIC50 for the following entry. `CC(C)(C(=O)Nc1ccc(-c2cncc(C(F)(F)F)n2)cc1)c1cccc(NS(=O)(=O)C2CC2)n1`
Data returned: 5.00 to 6.00

* * *

- TGT: human CTPS1 (Homo sapiens)
- Construct: purchased Proteros biostructures GmbH
- TEST_DETAILS: Human CTPS1 enzyme inhibition (ADP-Glo Max assay)
- Format: biochemical
- CONDITION_NOTES: Table 23; ADP-Glo Max assay; read-out: CTPS1 (Human CTPS1 Enzyme Inhibition data grouped by potency range, IC50)
pIC50: −log10 of the molar value.
pIC50 overview

CCOc1cncc(-c2ccc(NC(=O)C(C)(C)c3cc(C(F)(F)F)nc(NS(=O)(=O)C4CC4)n3)nc2)n1 :: 6.00 to 7.00
CCOc1cncc(-c2ccc(NC(=O)C(CCOC)c3ccnc(NS(=O)(=O)C4CC4)n3)nc2)n1 (stereo not drawn) :: ≥ 7.00

Data request: Identify the reported pIC50 for the following entry. `COc1cncc(-c2ccc(NC(=O)C(C)(C)c3ccnc(NS(=O)(=O)C4CC4)n3)cc2)c1`
Data returned: 6.00 to 7.00

Data request: Identify the reported pIC50 for the following entry. `O=C(Cc1cccc(NS(=O)(=O)C2CC2)n1)Nc1ccc(-c2cnccn2)cc1`
Data returned: 5.00 to 6.00

Data request: Identify the reported pIC50 for the following entry. `CCOc1cncc(-c2ccc(NC(=O)C(C)(C)c3ccnc(NS(=O)(=O)C4CC4)n3)cc2)c1`
Data returned: 6.00 to 7.00

Data request: Identify the reported pIC50 for the following entry. `CCOc1cncc(-c2cc(OC)c(NC(=O)C(C)(C)c3ccnc(NS(=O)(=O)C4CC4)n3)cc2F)n1`
Data returned: 6.00 to 7.00

Data request: Identify the reported pIC50 for the following entry. `CCOc1cncc(-c2cc(F)c(NC(=O)C(C)(C)c3ccnc(NS(=O)(=O)C4CC4)n3)cc2C)n1`
Data returned: 6.00 to 7.00

* * *

pIC50 overview
- TGT: human CTPS1 (Homo sapiens, UniProt P17812)
- Construct: purchased Proteros biostructures GmbH
- TEST_DETAILS: Human CTPS1 enzyme inhibition (ADP-Glo Max assay)
- Assay type: biochemical
- CONDITION_NOTES: Table 23; ADP-Glo Max assay; read-out: CTPS1 (Human CTPS1 Enzyme Inhibition data grouped by potency range, IC50)
pIC50: −log10 of the molar value.

Worked cases, answers included:
N#Cc1cncc(-c2ccc(NC(=O)Cc3cccc(NS(=O)(=O)C4CC4)n3)cc2)c1 :: 6.00 to 7.00
CCC(C(=O)Nc1ccc(-c2cncc(C3CC3)n2)cn1)c1ccnc(NS(=O)(=O)C2CC2)n1 (centres unmarked) :: ≥ 7.00

Let's switch to this molecule now.
Data request: Identify the reported pIC50 for the following entry. CCC(C(=O)Nc1ccc(-c2cncc(OC)n2)cn1)c1ccnc(NS(=O)(=O)C2CC2)n1 (centres unmarked)
Data returned: ≥ 7.00

* * *

- TGT: human CTPS1 (Homo sapiens)
- Construct: purchased Proteros biostructures GmbH
- TEST_DETAILS: Human CTPS1 enzyme inhibition (ADP-Glo Max assay)
- Assay type: biochemical
- CONDITION_NOTES: Table 23; ADP-Glo Max assay; read-out: CTPS1 (Human CTPS1 Enzyme Inhibition data grouped by potency range, IC50)
- Experimental: Biological Example 1—Human CTPS1 Enzyme Inhibition The enzyme inhibitory activities of compounds invented against the target of interest were determined using the ADP-Glo™ Max assay (Promega, UK). […] In all cases, the enzyme converts ATP to ADP and the ADP-Glo™ Max reagent subsequently depletes any remaining endogenous ATP in the reaction system. […] The percentage inhibition produced by each concentration of compound was calculated using the equation shown below: […]
ASSAY_READOUT: IC50

Worked cases, answers included:
CCOc1cncc(-c2cnc(NC(=O)C(CC)c3ccnc(NS(=O)(=O)C4CC4)n3)c(F)c2)n1 (stereo not shown) :: ≤ 100 nM
CC(C)(C(=O)Nc1ccc(-c2cccnc2)cc1)c1ccnc(NS(=O)(=O)C2CC2)n1 :: 1000 to 10000 nM
CC(C)Oc1cncc(-c2ccc(NC(=O)C(C)(C)c3ccnc(NS(=O)(=O)C4CC4)n3)c(F)c2)n1 :: ≤ 100 nM
COc1cncc(-c2ccc(NC(=O)Cc3cccc(NS(=O)(=O)C4CC4)n3)cc2)c1 :: 100 to 1000 nM
CCC(C(=O)Nc1ccc(-c2cncc(C3CC3)n2)cc1F)c1ccnc(NS(=O)(=O)C2CC2)n1 (stereo not shown) :: ≤ 100 nM
CCOc1cncc(-c2ccc(NC(=O)C(C)(C)c3ccnc(NS(=O)(=O)C4CC4)n3)c(OC(F)(F)F)c2)n1 :: ≤ 100 nM

Let's switch to this compound now.
Data request: Identify the reported IC50 for the following entry. `CC(C)(C(=O)Nc1ccc(-c2cnccn2)cc1F)c1ccnc(NS(=O)(=O)C2CC2)n1`
Data returned: 1000 to 10000 nM
